Data origin, for the record: ChEMBL document CHEMBL1125746

molecular target: Ornithine decarboxylase (Mus musculus) (UniProt P00860); assay: Compound was evaluated for the ability to inhibit the phorbol ester induced increase of mouse epidermal ornithine decarboxylase (ODC) activity by 50% when administered topically using ODC assay.; type: functional
Sequence (P00860 whole entry): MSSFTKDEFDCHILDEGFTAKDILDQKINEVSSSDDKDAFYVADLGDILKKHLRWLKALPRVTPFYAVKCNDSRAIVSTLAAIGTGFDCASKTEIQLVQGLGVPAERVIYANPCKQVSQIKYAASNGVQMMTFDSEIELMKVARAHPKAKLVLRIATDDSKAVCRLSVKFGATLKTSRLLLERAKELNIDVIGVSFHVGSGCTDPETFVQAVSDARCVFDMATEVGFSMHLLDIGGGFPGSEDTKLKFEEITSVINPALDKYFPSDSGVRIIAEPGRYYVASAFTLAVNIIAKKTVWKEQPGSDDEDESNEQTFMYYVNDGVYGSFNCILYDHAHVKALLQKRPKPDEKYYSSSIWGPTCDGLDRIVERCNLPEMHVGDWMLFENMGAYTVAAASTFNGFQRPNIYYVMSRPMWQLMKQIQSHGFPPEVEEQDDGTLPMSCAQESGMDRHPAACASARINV
Label MET when ID50 is strictly below 4 nM; otherwise label NOT MET.

compound.structure: C/C(=C\c1ccc(C(=O)O)cc1)c1ccc2c(c1)C(C)(C)CC(C)(C)S2
system.name: Ornithine decarboxylase (Mus musculus) (UniProt P00860)
assigned.category: MET
//
compound.structure: COC(=O)c1ccc(/C=C(/c2ccc3c(c2)C(C)(C)CCS3)C(F)(F)F)cc1
system.name: Ornithine decarboxylase (Mus musculus) (UniProt P00860)
assigned.category: NOT MET
//
compound.structure: C/C(=C\C=C\[C@H]1C[C@@H]1C(=O)O)c1ccc2c(c1)C(C)(C)CCS2
system.name: Ornithine decarboxylase (Mus musculus) (UniProt P00860)
assigned.category: NOT MET
//
compound.structure: COC(=O)c1ccc(/C=C(/c2ccc3c(c2)C(C)(C)CCO3)C(F)(F)F)cc1
system.name: Ornithine decarboxylase (Mus musculus) (UniProt P00860)
assigned.category: NOT MET
//
compound.structure: CC1=C(/C=C/C(C)=C/C=C/C(C)=C/C(=O)O)C(C)(C)CCC1
system.name: Ornithine decarboxylase (Mus musculus) (UniProt P00860)
assigned.category: MET
//
compound.structure: CC(/C=C/C=C(\C)c1ccc2c(c1)C(C)(C)CC(C)(C)S2)=C\C(=O)O
system.name: Ornithine decarboxylase (Mus musculus) (UniProt P00860)
assigned.category: MET
//
compound.structure: CC1(C)CCOc2ccc(/C(=C/c3ccc(C(=O)O)cc3)C(F)(F)F)cc21
system.name: Ornithine decarboxylase (Mus musculus) (UniProt P00860)
assigned.category: NOT MET
//
compound.structure: CC(/C=C/C=C(\C)c1ccc2c(c1)C(C)(C)CCS2)=C\C(=O)O
system.name: Ornithine decarboxylase (Mus musculus) (UniProt P00860)
assigned.category: MET
//
compound.structure: COC(=O)c1ccc(/C=C(/c2ccc3c(c2)C(C)(C)CC(C)(C)S3)C(F)(F)F)cc1
system.name: Ornithine decarboxylase (Mus musculus) (UniProt P00860)
assigned.category: NOT MET
//
compound.structure: CC1(C)CCSc2ccc(/C(=C/c3ccc(C(=O)O)cc3)C(F)(F)F)cc21
system.name: Ornithine decarboxylase (Mus musculus) (UniProt P00860)
assigned.category: NOT MET
//
compound.structure: CC1(C)CC(C)(C)c2cc(/C(=C/c3ccc(C(=O)O)cc3)C(F)(F)F)ccc2S1
system.name: Ornithine decarboxylase (Mus musculus) (UniProt P00860)
assigned.category: NOT MET
